tested on: MDA-MB-231 cells; experiment: Antiproliferative assay, MDA-MB-231 cells; format: cell-based, human; conditions: 72 hours; read-out: MDA-MB-231 50% cell growth inhibition
pIC50: −log10 of the molar value.
Result type: pIC50

- COc1cccc2c1C(=O)C=CC21OCCCO1 [TH-223]: 5.30

----------
tested on: mouse embryonic fibroblasts transformed with SV40 large T antigen; assay: Proliferation of SV40 transformed mouse embryonic fibroblasts; format: cell-based; conditions: Mus musculus, Fibroblast; data not shown; read-out: concentration required to inhibit growth by 50%
compounds and their reported IC50
Result type: IC50

* O=C1C=CC2(Oc3cccc4cccc(c34)O2)c2cccc(O)c21 [palmarumycin CP1, reference compound] | 3 µM
* O=C1C=CC2(Oc3cccc4cccc(c34)O2)c2cccc(OCc3ccco3)c21 | 3 µM

----------
Hi! I'm sharing some pIC50 results obtained with TrxR (Homo sapiens, UniProt Q16881).
Sequence (Q16881 151-649): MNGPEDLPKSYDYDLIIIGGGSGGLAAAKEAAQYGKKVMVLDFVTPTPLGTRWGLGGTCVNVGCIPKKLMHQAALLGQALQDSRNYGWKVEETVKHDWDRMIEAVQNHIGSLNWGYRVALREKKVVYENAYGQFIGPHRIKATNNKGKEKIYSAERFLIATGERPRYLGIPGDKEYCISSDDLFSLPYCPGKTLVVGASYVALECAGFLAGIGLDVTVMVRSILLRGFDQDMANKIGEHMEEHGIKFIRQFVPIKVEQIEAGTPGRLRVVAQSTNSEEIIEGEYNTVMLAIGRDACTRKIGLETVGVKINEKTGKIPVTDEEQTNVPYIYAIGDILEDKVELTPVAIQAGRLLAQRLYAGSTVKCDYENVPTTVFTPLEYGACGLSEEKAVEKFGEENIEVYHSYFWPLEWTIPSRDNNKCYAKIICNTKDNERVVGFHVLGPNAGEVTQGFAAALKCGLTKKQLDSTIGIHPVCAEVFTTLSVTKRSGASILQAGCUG
pIC50: −log10 of the molar value.
Result type: pIC50

* C=CCOc1cccc2c1C(=O)C=CC21Oc2cccc3cccc(c23)O1 [SR-14] | < 4.30
* O=C1C=CC2(Oc3cccc4cccc(c34)O2)c2cccc(OCc3ccccn3)c21 [SR-11] | < 4.30
* O=C1C=CC2(Oc3cccc4cccc(c34)O2)c2cccc(OCc3cccnc3)c21 [SR-12] | < 4.30
* O=C1C=CC2(Oc3cccc4cccc(c34)O2)c2cccc(OCc3ccoc3)c21 [SR-10] | < 4.30
* O=C1C=CC2(Oc3cccc4cccc(c34)O2)c2cccc(OCc3ccncc3)c21 [SR-13] | < 4.30
* COc1cccc2c1C(=O)C=CC21OCCCO1 [TH-223] | < 4.30
* COc1ccc(COc2cccc3c2C(=O)C=CC32Oc3cccc4cccc(c34)O2)cc1 [TH-39] | < 4.30
* O=C1C=CC2(OCCO2)c2cccc(O)c21 [TH-169] | 5.06
* O=C1C=CC2(Oc3cccc4cccc(c34)O2)c2cccc(O)c21 [palmarumycin CP1, reference compound] | 4.92

----------
molecular target: Trx-1/TrxR (Homo sapiens, UniProt P10599+Q16881); construct: Thioredoxin reductase was purified from human placenta as previously described; made in house; experiment: Trx-1/TrxR-dependent insulin reducing assay; type: biochemical; details: calculated from 5 concentrations (0.1 to 50 μM)
Sequence (P10599 whole entry, one chain of several): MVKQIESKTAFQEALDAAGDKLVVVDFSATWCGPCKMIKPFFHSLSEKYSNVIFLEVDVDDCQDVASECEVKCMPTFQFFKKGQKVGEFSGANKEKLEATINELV
pIC50: −log10 of the molar value.
Recorded pIC50 values for a group of molecules are listed next.
Result type: pIC50

- CC/C=C/CCOc1cccc2c1C(=O)C=CC21Oc2cccc3cccc(c23)O1: < 4.30
- COc1cccc2c1C(=O)C=CC21OCCCO1: 4.40
- O=C1C=CC2(OCCO2)c2cccc(O)c21: 5.47
- O=C1C=CC2(Oc3cccc4cccc(c34)O2)c2cccc(OCCc3ccccc3)c21: < 4.30
- COc1ccc(COc2cccc3c2C(=O)C=CC32Oc3cccc4cccc(c34)O2)cc1: < 4.30
- O=C1C=CC2(Oc3cccc4cccc(c34)O2)c2cccc(OCc3ccoc3)c21: 4.63
- C/C=C/COc1cccc2c1C(=O)C=CC21Oc2cccc3cccc(c23)O1: < 4.30
- O=C1C=CC2(Oc3cccc4cccc(c34)O2)c2cccc(OCc3ccccn3)c21: 4.38
- C=CCOc1cccc2c1C(=O)C=CC21Oc2cccc3cccc(c23)O1: 4.63
- O=C1C=CC2(Oc3cccc4cccc(c34)O2)c2cccc(OCc3ccco3)c21: < 4.30
- CC(C)=CCC/C(C)=C/COc1cccc2c1C(=O)C=CC21Oc2cccc3cccc(c23)O1: < 4.30
- O=C1C=CC2(Oc3cccc4cccc(c34)O2)c2cccc(OCc3ccncc3)c21: < 4.30
- COc1cccc(COc2cccc3c2C(=O)C=CC32Oc3cccc4cccc(c34)O2)c1: < 4.30
- O=C1C=CC2(Oc3cccc4cccc(c34)O2)c2cccc(O)c21 [palmarumycin CP1, reference compound]: 6.46
- O=C1C=CC2(Oc3cccc4cccc(c34)O2)c2cccc(OCc3cccnc3)c21: < 4.30
- O=C1C=CC2(Oc3cccc4cccc(c34)O2)c2cccc(OC/C=C/c3ccccc3)c21: < 4.30
- CCCCCCOc1cccc2c1C(=O)C=CC21Oc2cccc3cccc(c23)O1: < 4.30
